System: Escherichia coli TOP10;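 further: peptides expressed intracellularly from a pBAD plasmid library in pooled LB shake-flask culture, induced with 0.3% L-arabinose, DNA abundance read by NGS, three biological replicates, DESeq2 with apeglm shrinkage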
Assay: shrunken log2 fold change of peptide-encoding DNA abundance (4.5 h post-induction vs induction); higher = less antimicrobial activity (less host growth inhibition)
Conditions: time post-induction: 4.5 h; library: site-saturation at positions 5, 18, 19, 20
Given measured shrunken log2 fold change, output YES if it is greater than or equal to 0.004 and NO if not.

Solved cases (7 shown):
>>> label("RRIRERPPRLPRPRPRPHQFPRP")
"NO"
>>> label("RRIRTRPPRLPRPRPRPPITPRP")
"NO"
>>> label("RRIRGRPPRLPRPRPRPHDGPRP")
"YES"
>>> label("RRIRCRPPRLPRPRPRPCTVPRP")
"NO"
>>> label("RRIRNRPPRLPRPRPRPAQYPRP")
"YES"
>>> label("RRIRTRPPRLPRPRPRPPKLPRP")
"NO"
>>> label("RRIRRRPPRLPRPRPRPCSCPRP")
"NO"

Turning now to a further record.
Query string: Exam item: decide whether the reported shrunken log2 fold change for RRIRTRPPRLPRPRPRPGEVPRP is at least 0.004.
Result string: YES
